src = patent US20250215029A1

- testSystem: Recombinant STAT6 protein (STAT6 (W123-T658)) (Homo sapiens)
- Construct: Recombinant STAT6 protein (STAT6 (W123-T658))
- Sequence (P42226 123-658): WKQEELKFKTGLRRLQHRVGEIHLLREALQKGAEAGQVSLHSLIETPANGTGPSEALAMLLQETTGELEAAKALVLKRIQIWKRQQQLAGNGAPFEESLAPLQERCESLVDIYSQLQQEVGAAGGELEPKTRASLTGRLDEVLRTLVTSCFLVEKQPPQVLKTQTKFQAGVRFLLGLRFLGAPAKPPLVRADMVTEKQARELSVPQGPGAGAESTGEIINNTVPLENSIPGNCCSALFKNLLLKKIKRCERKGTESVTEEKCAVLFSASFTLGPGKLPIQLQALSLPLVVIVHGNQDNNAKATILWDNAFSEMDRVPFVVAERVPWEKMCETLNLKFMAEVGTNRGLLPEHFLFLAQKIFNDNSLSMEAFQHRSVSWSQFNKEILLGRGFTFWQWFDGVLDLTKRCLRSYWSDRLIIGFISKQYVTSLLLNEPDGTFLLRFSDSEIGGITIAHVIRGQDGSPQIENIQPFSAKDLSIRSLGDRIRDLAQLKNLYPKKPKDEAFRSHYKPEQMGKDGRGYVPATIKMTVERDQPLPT
- measurementDescription: STAT6 Fluorescence Polarization (FP) Assay
- Format: binding
- conditionDescription: STAT6 250 nM, probe 5-FAM-Ap[…]-NH2 2 nM, 45-minute incubation; read-out: STAT6 (FP assay IC50)
reportedEndpoint: IC50

Previously resolved entries follow.
compound	dataValue
N#C[C@H]1CN(C(=O)[C@@H]2CC[C@@H]3CC[C@H](O)C[C@H](NC(=O)c4cc5cc(C(F)(F)P(=O)(O)O)ccc5s4)C(=O)N32)C[C@@H]1c1ccccc1	≤ 0.3 µM
COc1cc(CCN(C)C(=O)[C@@H]2CC[C@@H]3CCCC[C@H](NC(=O)c4cc5cc(C(F)(F)P(=O)(O)O)ccc5s4)C(=O)N32)ccn1	0.3 to 3 µM
O=C(N[C@H]1CCC[C@H]2CC[C@@H](C(=O)N3CC(O)(c4ccccn4)C3)N2C1=O)c1cc2cc(C(F)(F)P(=O)(O)O)ccc2s1	0.3 to 3 µM
CN(C(=O)[C@@H]1CC[C@@H]2CCCC[C@H](NC(=O)c3cc4cc(C(F)(F)P(=O)(O)O)ccc4s3)C(=O)N21)c1ccc2nnccc2c1	≤ 0.3 µM

Look at each compound and report its IC50.
1. O=C(N[C@H]1CCC[C@H]2CC[C@@H](C(=O)N3CC(c4ncccn4)C3)N2C1=O)c1cc2cc(C(F)(F)P(=O)(O)O)ccc2s1
2. O=C(N[C@H]1CCCC[C@H]2CC[C@@H](C(=O)N3CC(N4CCOCC4)C3)N2C1=O)c1cc2cc(C(F)(F)P(=O)(O)O)ccc2s1
3. C[C@@H]1C[C@H]2CC[C@@H](C(=O)N3CC(c4cccnc4)C3)N2C(=O)[C@@H](NC(=O)c2cc3cc(C(F)(F)P(=O)(O)O)ccc3s2)C1 (single isomer, unassigned)
4. CN(C(=O)[C@@H]1CC[C@@H]2C/C=C\C[C@H](NC(=O)c3cc4cc(C(F)(F)P(=O)(O)O)ccc4[nH]3)C(=O)N21)c1ccccc1
5. N#C[C@H]1CN(C(=O)[C@@H]2CC[C@@H]3CCCC[C@H](NC(=O)c4cc5cc(C(F)(F)P(=O)(O)O)ccc5s4)C(=O)N32)C[C@@H]1C1CCCCC1 (racemic)
6. O=C(N[C@H]1CCC[C@H]2CC[C@@H](C(=O)Nc3ccc(-c4ccccc4)cc3)N2C1=O)c1cc2cc(C(F)(F)P(=O)(O)O)ccc2s1
7. O=C(NC1CCCC[C@H]2CC[C@@H](C(=O)N3CC(c4ccccc4)CC34CC4)N2C1=O)c1cc2cc(C(F)(F)P(=O)(O)O)ccc2s1 (stereo partly shown)

Result:
3 to 30 µM
3 to 30 µM
3 to 30 µM
0.3 to 3 µM
≤ 0.3 µM
0.3 to 3 µM
≤ 0.3 µM

Please look at the items below and tell me IC50 for each one, in order.
1. O=C(N[C@H]1CCCC[C@H]2CC[C@@H](C(=O)Nc3ccc4c(c3)CCCS4(=O)=O)N2C1=O)c1cc2cc(C(F)(F)P(=O)(O)O)ccc2s1
2. CS(=N)(=O)C1CN(C(=O)[C@@H]2CC[C@@H]3CCCC[C@H](NC(=O)c4cc5cc(C(F)(F)P(=O)(O)O)ccc5s4)C(=O)N32)C1 (stereo partly shown)

Result:
0.3 to 3 µM
3 to 30 µM
